solubility for assorted compounds
Assay: Rough solubility test of A-type crystal and salts of the compound of formula (I)
Conditions: water, thermodynamic from solid

CCNC(=O)c1onc(-c2cc(C(C)C)c(O)cc2O)c1-c1ccc2c(c1)CCNC2 [A-type crystal] ... < 1000 µg/mL

Ask: solubility for CCNC(=O)c1onc(-c2cc(C(C)C)c(O)cc2O)c1-c1ccc2c(c1)CCNC2.Cl [hydrochloride] ?
Result: 5300 to 6300 µg/mL

---

Experiment: Rough solubility test of A-type crystal and salts of the compound of formula (I)
Settings: acetic acid/sodium acetate buffer pH 5.5, pH 5.5, aqueous buffer, thermodynamic from solid
solubility for assorted compounds

CCNC(=O)c1onc(-c2cc(C(C)C)c(O)cc2O)c1-c1ccc2c(c1)CCNC2.Cl [hydrochloride] ... < 2000 µg/mL

Then this compound:
Ask: solubility for CCNC(=O)c1onc(-c2cc(C(C)C)c(O)cc2O)c1-c1ccc2c(c1)CCNC2 ?
Result: < 1000 µg/mL

---

Experiment: Rough solubility test of A-type crystal and salts of the compound of formula (I)
Conditions: acetic acid/sodium acetate buffer pH 6.5, pH 6.5, aqueous buffer, thermodynamic from solid
property name: solubility

Ask: solubility for CCNC(=O)c1onc(-c2cc(C(C)C)c(O)cc2O)c1-c1ccc2c(c1)CCNC2 ?
Result: < 1000 µg/mL

---

Assay: Rough solubility test of A-type crystal and salts of the compound of formula (I)
Settings: acetic acid/sodium acetate buffer pH 7.5, pH 7.5, aqueous buffer, thermodynamic from solid
property name: solubility

CCNC(=O)c1onc(-c2cc(C(C)C)c(O)cc2O)c1-c1ccc2c(c1)CCNC2.Cl [hydrochloride] ... < 2000 µg/mL

Then this molecule:
Ask: solubility for CCNC(=O)c1onc(-c2cc(C(C)C)c(O)cc2O)c1-c1ccc2c(c1)CCNC2 [A-type crystal] ?
Result: < 1000 µg/mL

---

solubility for assorted compounds
Test: Rough solubility test of A-type crystal and salts of the compound of formula (I)
Conditions: 0.9% NaCl solution, saline or isotonic, thermodynamic from solid

CCNC(=O)c1onc(-c2cc(C(C)C)c(O)cc2O)c1-c1ccc2c(c1)CCNC2.Cl [hydrochloride] ... < 2000 µg/mL

Then this compound:
Ask: solubility for CCNC(=O)c1onc(-c2cc(C(C)C)c(O)cc2O)c1-c1ccc2c(c1)CCNC2 ?
Result: < 1000 µg/mL

---

Assay: Rough solubility test of A-type crystal and salts of the compound of formula (I)
Settings: 5% glucose solution, saline or isotonic, thermodynamic from solid
solubility for assorted compounds

CCNC(=O)c1onc(-c2cc(C(C)C)c(O)cc2O)c1-c1ccc2c(c1)CCNC2 ... < 1 mg/mL

Then this compound:
Ask: solubility for CCNC(=O)c1onc(-c2cc(C(C)C)c(O)cc2O)c1-c1ccc2c(c1)CCNC2.Cl [hydrochloride] ?
Result: 4.6 to 5.5 mg/mL

---

Test: Rough solubility test of A-type crystal and salts of the compound of formula (I)
Details: 0.01N HCl, simulated gastric fluid, thermodynamic from solid
property name: solubility

Ask: solubility for CCNC(=O)c1onc(-c2cc(C(C)C)c(O)cc2O)c1-c1ccc2c(c1)CCNC2 ?
Result: 800 to 1000 µg/mL

---

Assay: Rough solubility test of A-type crystal and salts of the compound of formula (I)
Conditions: 0.1N HCl, simulated gastric fluid, thermodynamic from solid
property name: solubility

Ask: solubility for CCNC(=O)c1onc(-c2cc(C(C)C)c(O)cc2O)c1-c1ccc2c(c1)CCNC2 [A-type crystal] ?
Result: < 1000 µg/mL

The reported numbers originate from patent US10851071B2.
